# Test system: Dicots
# experiment-description: Herbicidal activity, postemergence, dicot weeds in flats (% control)
# Format: in vivo
# assay-conditions: post-emergence, 336 h, dicots (4 species, average), 10 lb./A., about 2 weeks after application, percent of plants killed
readout-type: activity at 11208.5 g/ha (%)
Reply with just the number (in %).

What does the data say about its activity at 11208.5 g/ha? Entry: N#Cc1cc(C(F)(F)F)ccc1Oc1ccc(Cl)cc1 75

What measured activity at 11208.5 g/ha goes with N#Cc1cc(C(F)(F)F)ccc1Oc1ccc(C(F)(F)F)cc1 ? 75

Quick check: activity at 11208.5 g/ha of N#Cc1ccc(Oc2ccc(C(F)(F)F)cc2C#N)cc1 ? 65

Query: activity at 11208.5 g/ha; subject: N#Cc1cc(C(F)(F)F)ccc1Oc1ccc(Br)cc1 85

Data request, read-out activity at 11208.5 g/ha, for N#Cc1cc(C(F)(F)F)ccc1Oc1ccc(Cl)c(Cl)c1 77

Please give the measured activity at 11208.5 g/ha for this compound: N#Cc1cc(Cl)ccc1Oc1ccc([N+](=O)[O-])cc1 100

Item N#Cc1cc(F)ccc1Oc1ccc([N+](=O)[O-])cc1 has what recorded activity at 11208.5 g/ha? 100

---

# Test system: Monocots
# experiment-description: Herbicidal activity, preemergence, monocot weeds in flats (% control)
# Assay type: in vivo
# assay-conditions: pre-emergence, 336 h, monocots (10 species, average), 2 lb./A., about 2 weeks after application, percent of plants killed
Lab note: compare activity at 2241.7 g/ha against 60%. Equal or greater, write Criterion met. Smaller, write Criterion not met.

Test whether the compound N#Cc1cc(C(F)(F)F)ccc1Oc1ccc(C(F)(F)F)cc1 records activity at 2241.7 g/ha of 60% or higher. Criterion not met

Say whether N#Cc1cc(C(F)(F)F)ccc1Oc1ccc(Cl)cc1 shows activity at 2241.7 g/ha of 60% or more. Criterion met

In plain terms: is recorded activity at 2241.7 g/ha at least 60% for N#Cc1cc(C(F)(F)F)ccc1Oc1ccc(Br)cc1 ? Criterion not met

Is reported activity at 2241.7 g/ha greater than or equal to 60% here: N#Cc1cc(C(F)(F)F)ccc1Oc1ccc(Cl)c(Cl)c1 Criterion not met

Is it the case that N#Cc1ccc(Oc2ccc(C(F)(F)F)cc2C#N)cc1 has activity at 2241.7 g/ha reaching or exceeding 60%? Criterion not met

---

# Test system: Monocots
# experiment-description: Herbicidal activity, postemergence, monocot weeds in flats (% control)
# Assay type: in vivo
# assay-conditions: post-emergence, 336 h, monocots (4 species, average), 10 lb./A., about 2 weeks after application, percent of plants killed
readout-type: activity at 11208.5 g/ha (%)
# unit: % | format: bare number

What value of measured activity at 11208.5 g/ha is listed for N#Cc1ccc(Oc2ccc(C(F)(F)F)cc2C#N)cc1 ? 25

Quick check: activity at 11208.5 g/ha of N#Cc1cc(Cl)ccc1Oc1ccc([N+](=O)[O-])cc1 ? 95

Recorded activity at 11208.5 g/ha of N#Cc1cc(C(F)(F)F)ccc1Oc1ccc(Cl)cc1 , please. 17

For N#Cc1cc(C(F)(F)F)ccc1Oc1ccc(Cl)c(Cl)c1 , what is its reported activity at 11208.5 g/ha? 40

Given N#Cc1cc(C(F)(F)F)ccc1Oc1ccc(Br)cc1 , state its recorded activity at 11208.5 g/ha. 22

Fill in: activity at 11208.5 g/ha of N#Cc1cc(C(F)(F)F)ccc1Oc1ccc(C(F)(F)F)cc1 is ___ 70

Which activity at 11208.5 g/ha is listed for N#Cc1cc(F)ccc1Oc1ccc([N+](=O)[O-])cc1 ? 95
